System: COLO 205 colon
Assay: NCI-60 one-dose screen, 48 h (100 = growth as untreated, 0 = no growth, -100 = all killed)
Conditions: 10 µM unless noted
About 83,000 compounds went through this panel and 20% of them were active in at least one assay; those are over-represented in the sample as a whole. The source made the active and inactive calls. How the source made its calls: active means growth percent below 10; inactive means the rest.
endpointName: growth

compound: C=C1C(=O)O[C@H]2[C@H]1CC/C(COC(=O)NCc1ccc(Cn3c(=O)sn(-c4ccccc4)c3=O)cc1)=C\CC[C@@]1(C)O[C@@H]21
growth: 3.5% (active)

Please look at the following compound next.
# O=S(O)c1cc(Cl)cc(Cl)c1OCc1ccccc1 with COLO 205 colon: growth is 105% (inactive)

###

Tested on: UACC-62 melanoma
Assay: NCI-60 one-dose screen, 48 h (100 = growth as untreated, 0 = no growth, -100 = all killed)
Settings: 10 µM unless noted
Compounds without any hit were thinned out: in the full panel of roughly 83,000, 20% have a hit. The source made the active and inactive calls. Rule for the calls: active = growth percent below 10; inactive = the rest.
endpointName: growth

Solved cases below.
molecule: CSc1ccc2c3c(n(CCCn4ccnc4)c(=O)c2c1)-c1ccccc1C3=O
growth: 19.8% (inactive)
//
molecule: O=C(N/N=C/c1ccc(Cl)cc1)c1ccc(NC(=O)c2ccccn2)cc1
growth: 62% (inactive)
//
molecule: CCOC(=O)CC1CSC(N/N=C/c2ccc(F)c(Br)c2)=N1 (stereo not given)
growth: 103% (inactive)
//
molecule: COc1ccc(C(O)c2cc3c(N)c(C(=O)Nc4cccc5ccccc45)sc3nc2C)cc1 (stereo not given)
growth: 18.6% (inactive)
//
molecule: COc1ccc(-c2cc(-c3cccnc3)nc3sc4c(N)c(C(C)=O)c(-c5ccccc5)nc4c23)cc1OC
growth: 75.5% (inactive)
//
molecule: Cc1c(C(C)(C)O)cn2ncnc(Oc3ccc(NC(=O)Nc4ccc(Cl)c(C(F)(F)F)c4)c(F)c3)c12
growth: 72% (inactive)
//
molecule: CN(C)c1ccc(C(=S)c2ccc(N(C)C)cc2)cc1
growth: 52.2% (inactive)
//
molecule: CSc1nc(-c2ccco2)c(C#N)c(=O)n1C
growth: 99.5% (inactive)

According to the records, this molecule O=C1CCCC1[n+]1ccccc1 (stereo not given) displays growth of 96.5% (inactive)

According to the records, this molecule CCOC(=O)c1c(C)nc2c(c1N)C(=O)C(=O)N2Cc1ccc(OC)cc1 displays growth of 53.3% (inactive)

According to the records, this molecule Cc1ccc2c(c1)=C/C(=C\c1cc(-c3ccccc3)[nH]c1O)C(=O)N=2 displays growth of 29.9% (inactive)

According to the records, this molecule O=C(CCCCCCCC(=O)N1CCCCC1)N1CCCCC1 displays growth of 91% (inactive)

According to the records, this molecule N#Cc1ccc(/C=C/c2cn(-c3ccccc3)nc2-c2cccc([N+](=O)[O-])c2)cc1 displays growth of 77% (inactive)

###

Tested on: CAKI-1 renal
Assay: NCI-60 one-dose screen, 48 h (100 = growth as untreated, 0 = no growth, -100 = all killed)
Details: 10 µM unless noted
Procedure: Growth inhibition of the CAKI-1 human tumor cell line is measured as a screen for anti-cancer activity. Cells are grown in 96 well plates and exposed to the test compound for 48 hours. Compounds are tested at a single concentration, which is 10^-5 M for most compounds. The reported endpoint is percent growth (GI% or GIPRCNT), where numbers from 0 - 100% represent growth inhibition, and numbers from -100% - 0 represent cell death. For example, a value of 40 represents 60% growth inhibition. […]
The panel holds about 83,000 compounds, 20% with a hit somewhere; the sample as a whole holds those more often.
Form field: growth (one value per entry).
Form entry: value (%) — number only.

compound: C=C(C)[C@@H]1CC[C@]2(C(=O)Nc3ccccn3)CC[C@]3(C)[C@H](CC[C@@H]4[C@@]5(C)CCCNC(C)(C)[C@@H]5CC[C@]43C)[C@@H]12
testResult: 34.8

compound: COc1nc(/C=C\Nc2ccc3c(c2)OCCOCCOCCOCCO3)nc(OC)n1
testResult: 93.1

compound: Cc1ccc2c(c1)nc(C)n2-c1ncnc2c1CC(C)c1cc(O)ccc1N2C (stereo not given)
testResult: 42.4

compound: COc1cc(N2C(=O)[C@H](Cl)C2c2ccc(SC)cc2)cc(OC)c1OC (stereo not given in full)
testResult: 24.3

compound: CNC(=O)Nc1ccc(-c2ccc3ncnc(Nc4cccc(Cl)c4)c3c2)cc1
testResult: 32.1

compound: Nc1ncnc2c1N=C(c1ccc(F)cc1)CC(c1cccc(Nc3ccnc4cc(Cl)ccc34)c1)N2 (stereo not given)
testResult: 70.5

According to the records, this compound COCCn1cc(-c2nc(-c3cn(CCOC)c4ncccc34)cs2)c2cc(F)ccc21 displays growth of 86.4

According to the records, this compound O=C1c2cccnc2C(=O)c2c1c(C(=O)OCCc1ccccn1)c1ccccn21 displays growth of 8.74

According to the records, this compound CN(C)Cc1ccc(NC(=O)c2cncc(C#Cc3cnc(N)c4ncccc34)c2)cc1C(F)(F)F displays growth of 83

According to the records, this compound N#Cc1c(-c2ccccc2)nc2c(c(-c3ccc(Cl)cc3)nn2-c2ccccc2)c1-c1ccc([N+](=O)[O-])cc1 displays growth of 79

According to the records, this compound O=C(N/N=C/c1ccc(Cl)cc1)c1ccc(NC(=O)c2ccccn2)cc1 displays growth of 41.2

According to the records, this compound N#Cc1c(-c2cccc(Cl)c2)cc(-c2cccnc2)[nH]c1=O displays growth of 72.8

According to the records, this compound COc1cc2c(cc1OCCCN1CCN(C(=S)SCCC(C#N)(c3ccccc3)c3ccccc3)CC1)N=C[C@@H]1CCCN1C2=O displays growth of -44.1

According to the records, this compound CN(C)CCCC1(c2ccc(F)cc2)OCc2cc(-c3csc4ccccc34)ccc21 (stereo not given) displays growth of 4.7

According to the records, this compound O=Nc1ccc(NC(=O)Nc2ccc([N+](=O)[O-])cc2)cc1 displays growth of 97.1

According to the records, this compound Nc1nc(C(=O)N/N=C/c2ccc(F)cc2)nn1-c1ccc(S(N)(=O)=O)cc1 displays growth of 90.4

###

Tested on: DU-145 prostate
Experiment: NCI-60 one-dose screen, 48 h (100 = growth as untreated, 0 = no growth, -100 = all killed)
Conditions: 10 µM unless noted
Compounds without any hit were thinned out: in the full panel of roughly 83,000, 20% have a hit.
Form field: growth (one value per entry).
Form entry: value (%) — number only.

Solved cases below.
molecule: O=C1CCCC1[n+]1ccccc1 (configuration not stated)
units: %
growth: 105
--
molecule: COc1cc(-c2cc(-c3ccc(Nc4nc(Nc5ccc(Cl)cc5)nc(Nc5ccc(Cl)cc5)n4)cc3)no2)cc(OC)c1OC
units: %
growth: 80.6
--
molecule: COc1ccc(C2C3=C(COC3=O)N(CCO)c3cc4c(cc32)OCO4)cc1OC (configuration not stated)
units: %
growth: 100

According to the records, this molecule COC1C(O)CC(OC2CC(OC3CC(O[C@@H]4C(=O)c5c(cc6cc(OC7CC(OC8CC(O)C(O)C(C)O8)C(O)C(C)O7)c(C)c(O)c6c5O)CC4[C@H](OC)[C@@H](O)C(C)=O)OC(C)C3O)OC(C)C2O)OC1C (some centres not stated) displays growth of 15.8

According to the records, this molecule Nc1cc(-c2ccc(Cl)cc2)nn1-c1nnc(/C=C/c2ccco2)c(=O)[nH]1 displays growth of 63.3

According to the records, this molecule COC1C(O)CC(OC2CC(OC3CC(O[C@@H]4C(=O)c5c(cc6cc(OC7CC(OC8CC(O)C(O)C(C)O8)C(O)C(C)O7)c(C)c(O)c6c5O)CC4[C@H](OC)C(=O)C(C)=O)OC(C)C3O)OC(C)C2O)OC1C (some centres not stated) displays growth of 10.4

According to the records, this molecule CCN1CCN(CCNc2nccc(-c3c(-c4ccc(F)c(O)c4)nc4occn34)n2)S1(=O)=O displays growth of 26.8

###

Form field: growth (one value per entry).
System: MCF7 breast
Assay: NCI-60 one-dose screen, 48 h (100 = growth as untreated, 0 = no growth, -100 = all killed)
Settings: 10 µM unless noted
Compounds without any hit were thinned out: in the full panel of roughly 83,000, 20% have a hit.
Form entry: value (%) — number only.

Solved cases below.
compound: Cc1cc(C)c2c(c1)N(C)c1ncnc(-n3c(C)nc4cc(C)ccc43)c1CC2C (stereo not given)
systemUnderTest: MCF7 breast
testResult: 18.7
--
compound: CC(=O)c1ccc(-n2cc(CN3CCN(c4cc5c(cc4F)c(=O)c(C(=O)O)cn5C4CC4)CC3)nn2)cc1
systemUnderTest: MCF7 breast
testResult: 72.9
--
compound: Cc1ccccc1N1CCN(C(=S)c2ccccc2)CC1
systemUnderTest: MCF7 breast
testResult: 88.2

According to the records, this compound CCOC(=O)c1cn2ncnc(Oc3ccc(NC(=O)NC4CC4)c(Cl)c3)c2c1C displays growth of 90.5

According to the records, this compound O=C1O[C@@H](c2ccccc2Cl)[C@@H]2c3cc4c(cc3CCN12)OCO4 displays growth of 103
